- TARGET: MOR (Homo sapiens, UniProt P35372)
- Sequence (P35372 whole entry): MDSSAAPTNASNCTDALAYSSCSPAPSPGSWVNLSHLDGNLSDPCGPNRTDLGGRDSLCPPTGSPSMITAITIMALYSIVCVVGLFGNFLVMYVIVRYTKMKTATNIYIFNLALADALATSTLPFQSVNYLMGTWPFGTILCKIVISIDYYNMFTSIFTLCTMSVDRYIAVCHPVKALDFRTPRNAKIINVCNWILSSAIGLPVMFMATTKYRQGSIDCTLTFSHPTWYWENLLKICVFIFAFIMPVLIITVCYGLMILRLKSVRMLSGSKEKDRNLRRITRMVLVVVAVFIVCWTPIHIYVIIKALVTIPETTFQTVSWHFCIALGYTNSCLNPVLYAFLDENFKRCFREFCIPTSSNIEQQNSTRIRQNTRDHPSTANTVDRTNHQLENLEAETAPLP
- EXPERIMENTAL DETAILS: BRET-Gi1 protein activation
QUANTITY NAME: pEC50
Conceptually, pEC50 converts a concentration in mol/L into minus its log10.

Query block: Tell me pEC50 of CN(C(=O)/C=C/c1ccoc1)[C@@H]1CC[C@@]2(O)[C@H]3Cc4ccc(O)c5c4[C@@]2(CCN3CC2CC2)[C@H]1O5 [Nalfurafine, nalfurafine] when tested on MOR (Homo sapiens, UniProt P35372).
Result block: 8.29

* * *

- TARGET: DOR (Homo sapiens)
- Sequence (P41143 whole entry): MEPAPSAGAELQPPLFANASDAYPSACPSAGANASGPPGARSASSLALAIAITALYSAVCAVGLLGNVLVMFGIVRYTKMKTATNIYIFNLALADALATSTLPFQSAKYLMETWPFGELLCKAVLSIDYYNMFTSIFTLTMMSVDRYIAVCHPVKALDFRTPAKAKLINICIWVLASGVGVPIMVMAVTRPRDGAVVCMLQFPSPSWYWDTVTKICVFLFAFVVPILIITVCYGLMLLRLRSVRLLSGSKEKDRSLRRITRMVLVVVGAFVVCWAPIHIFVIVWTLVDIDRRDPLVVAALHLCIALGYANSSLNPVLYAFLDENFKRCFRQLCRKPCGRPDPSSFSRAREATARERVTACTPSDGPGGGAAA
QUANTITY NAME: Ki (nM)
I only need the number, in nM, no unit after it.

Query block: Supply recorded Ki for CN(C(=O)/C=C/c1ccoc1)[C@@H]1CC[C@@]2(O)[C@H]3Cc4ccc(O)c5c4[C@@]2(CCN3CC2CC2)[C@H]1O5 here.
Result block: 0.427

* * *

- TARGET: MOR (Homo sapiens, UniProt P35372)
QUANTITY NAME: Ki (nM)
I only need the number, in nM, no unit after it.

Query block: Tell me Ki of CN(C(=O)/C=C/c1ccoc1)[C@@H]1CC[C@@]2(O)[C@H]3Cc4ccc(O)c5c4[C@@]2(CCN3CC2CC2)[C@H]1O5 [Nalfurafine, nalfurafine] when tested on MOR (Homo sapiens, UniProt P35372).
Result block: 13.2
